# test.system: B.subtilis neutral protease, wild type (PN w.t.) (Bacillus subtilis)
# Construct: made in house; host or cells: B. subtilis SMS 108 carrying pSM 127 (NRRL B-15900)
# Sequence (P68736 222-521): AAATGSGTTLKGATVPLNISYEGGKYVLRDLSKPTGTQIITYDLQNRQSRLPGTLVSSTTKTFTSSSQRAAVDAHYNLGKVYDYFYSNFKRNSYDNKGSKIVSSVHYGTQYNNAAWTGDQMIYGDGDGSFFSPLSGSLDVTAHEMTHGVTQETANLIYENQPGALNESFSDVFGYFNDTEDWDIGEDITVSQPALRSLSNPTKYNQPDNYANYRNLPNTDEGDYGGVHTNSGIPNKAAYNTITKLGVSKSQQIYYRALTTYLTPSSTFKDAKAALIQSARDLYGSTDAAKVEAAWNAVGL
# assay.remarks: Kinetic parameters on synthetic peptide substrates (HPLC of hydrolysis products)
# Format: biochemical
# Design: unit not given beside the values
# test.parameters: 37° C., 25 mM Tris-HCl, pH 7.0, 2.5 mM calcium acetate
Residues, ends and D or L forms follow the SMILES beside them. *: point of attachment. Cbz = O=C(OCc1ccccc1)*
property: Kcat

Example molecules with recorded Kcat:
CC(C)C[C@H](NC(=O)[C@@H](NC(=O)OCc1ccccc1)C(C)C)C(=O)N[C@@H](C)C(=O)O [Z--Val--Leu--Ala, Z-Val-Leu-Ala] (Cbz-Val-Leu-Ala-OH)	6.12
CC(C)C[C@H](NC(=O)[C@H](C)NC(=O)OCc1ccccc1)C(=O)N[C@@H](C)C(=O)O [Z--Ala--Leu--Ala, Z-Ala-Leu-Ala] (Cbz-Ala-Leu-Ala-OH)	3005
CC(C)C[C@H](NC(=O)CNC(=O)OCc1ccccc1)C(=O)N[C@@H](C)C(=O)O [Z--Gly--Leu--Ala, Z-Gly-Leu-Ala] (Cbz-Gly-Leu-Ala-OH)	1150

Kindly review the next molecule as well.
The molecule CC(C)C[C@H](NC(=O)[C@H](Cc1ccccc1)NC(=O)OCc1ccccc1)C(=O)N[C@@H](C)C(=O)O [Z--Phe--Leu--Ala, Z-Phe-Leu-Ala] (Cbz-Phe-Leu-Ala-OH) on B.subtilis neutral protease, wild type (PN w.t.) (Bacillus subtilis): Kcat was 1986

====

Recorded Kcat, one value per entry.
# test.system: B.subtilis neutral protease double mutant 147/189 (Gly 147 → Ala, Gly 189 → Ala) (Bacillus subtilis, UniProt P68736, G369A/G406A)
# Construct: made in house; host or cells: B. subtilis SMS 108 carrying pSM 376 (B. subtilis SMS 262)
# Sequence (P68736 222-521 G369A/G406A): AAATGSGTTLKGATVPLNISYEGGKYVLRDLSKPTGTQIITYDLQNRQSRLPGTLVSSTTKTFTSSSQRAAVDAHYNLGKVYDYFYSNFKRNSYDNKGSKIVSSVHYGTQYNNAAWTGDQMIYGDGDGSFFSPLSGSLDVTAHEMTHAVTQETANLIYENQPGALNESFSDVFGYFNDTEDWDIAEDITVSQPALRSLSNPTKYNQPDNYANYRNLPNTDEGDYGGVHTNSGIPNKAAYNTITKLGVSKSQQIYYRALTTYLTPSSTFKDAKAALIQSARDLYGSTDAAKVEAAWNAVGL
# assay.remarks: Kinetic parameters on synthetic peptide substrates (HPLC of hydrolysis products)
# Type: biochemical
# test.parameters: 147/189 mutant; 37° C., 25 mM Tris-HCl, pH 7.0, 2.5 mM calcium acetate
Residues, ends and D or L forms follow the SMILES beside them. *: point of attachment. Cbz = O=C(OCc1ccccc1)*
Please state the value as a number alone, without comment.

These recorded examples may help you get a feel for the data.
CC(C)C[C@H](NC(=O)[C@H](C)NC(=O)OCc1ccccc1)C(=O)N[C@@H](C)C(=O)O [Z--Ala--Leu--Ala, Z-Ala-Leu-Ala] (Cbz-Ala-Leu-Ala-OH)	1329
CC(C)C[C@H](NC(=O)[C@@H](NC(=O)OCc1ccccc1)C(C)C)C(=O)N[C@@H](C)C(=O)O [Z--Val--Leu--Ala, Z-Val-Leu-Ala] (Cbz-Val-Leu-Ala-OH)	7.61
CC(C)C[C@H](NC(=O)CNC(=O)OCc1ccccc1)C(=O)N[C@@H](C)C(=O)O [Z--Gly--Leu--Ala, Z-Gly-Leu-Ala] (Cbz-Gly-Leu-Ala-OH)	186.4

// field: Kcat; key: CC(C)C[C@H](NC(=O)[C@H](Cc1ccccc1)NC(=O)OCc1ccccc1)C(=O)N[C@@H](C)C(=O)O [Z--Phe--Leu--Ala, Z-Phe-Leu-Ala] (Cbz-Phe-Leu-Ala-OH) ; value = 1038

====

Each entry below carries its reported Kcat.
# test.system: B.subtilis neutral protease mutant 147 (Gly 147 → Ala) (Bacillus subtilis, UniProt P68736, G369A)
# Construct: made in house; host or cells: B. subtilis SMS 108 carrying pSM 374 (B. subtilis SMS 263)
# Sequence (P68736 222-521 G369A): as the sequence (P68736 222-521 G369A/G406A) above, with A185G counted along it
# assay.remarks: Kinetic parameters on synthetic peptide substrates (HPLC of hydrolysis products)
# Type: biochemical
# test.parameters: 147 mutant; 37° C., 25 mM Tris-HCl, pH 7.0, 2.5 mM calcium acetate
Residues, ends and D or L forms follow the SMILES beside them. *: point of attachment. Cbz = O=C(OCc1ccccc1)*
Enter a number only.

CC(C)C[C@H](NC(=O)CNC(=O)OCc1ccccc1)C(=O)N[C@@H](C)C(=O)O [Z--Gly--Leu--Ala, Z-Gly-Leu-Ala] (Cbz-Gly-Leu-Ala-OH)	105.8
CC(C)C[C@H](NC(=O)[C@H](Cc1ccccc1)NC(=O)OCc1ccccc1)C(=O)N[C@@H](C)C(=O)O [Z--Phe--Leu--Ala, Z-Phe-Leu-Ala] (Cbz-Phe-Leu-Ala-OH)	1933

Record summary for CC(C)C[C@H](NC(=O)[C@@H](NC(=O)OCc1ccccc1)C(C)C)C(=O)N[C@@H](C)C(=O)O [Z--Val--Leu--Ala, Z-Val-Leu-Ala] (Cbz-Val-Leu-Ala-OH) : reported Kcat = 3.76

====

The entries below are paired with their reported Km.
# test.system: B.subtilis neutral protease double mutant 147/189 (Gly 147 → Ala, Gly 189 → Ala) (Bacillus subtilis, UniProt P68736, G369A/G406A)
# Construct: made in house; host or cells: B. subtilis SMS 108 carrying pSM 376 (B. subtilis SMS 262)
# assay.remarks: Kinetic parameters on synthetic peptide substrates (HPLC of hydrolysis products)
# Assay type: biochemical
# test.parameters: 147/189 mutant; 37° C., 25 mM Tris-HCl, pH 7.0, 2.5 mM calcium acetate
Residues, ends and D or L forms follow the SMILES beside them. *: point of attachment. Cbz = O=C(OCc1ccccc1)*
Enter your answer as a number in mM; do not include the unit.

CC(C)C[C@H](NC(=O)[C@H](C)NC(=O)OCc1ccccc1)C(=O)N[C@@H](C)C(=O)O [Z--Ala--Leu--Ala, Z-Ala-Leu-Ala] (Cbz-Ala-Leu-Ala-OH)	8.72

Field Km (entry CC(C)C[C@H](NC(=O)[C@H](Cc1ccccc1)NC(=O)OCc1ccccc1)C(=O)N[C@@H](C)C(=O)O [Z--Phe--Leu--Ala, Z-Phe-Leu-Ala] (Cbz-Phe-Leu-Ala-OH) ) reads 0.95

The value of Km measured for the molecule CC(C)C[C@H](NC(=O)[C@@H](NC(=O)OCc1ccccc1)C(C)C)C(=O)N[C@@H](C)C(=O)O [Z--Val--Leu--Ala, Z-Val-Leu-Ala] (Cbz-Val-Leu-Ala-OH) turned out to be 6.97

Field Km (entry CC(C)C[C@H](NC(=O)CNC(=O)OCc1ccccc1)C(=O)N[C@@H](C)C(=O)O [Z--Gly--Leu--Ala, Z-Gly-Leu-Ala] (Cbz-Gly-Leu-Ala-OH) ) reads 4.39

====

# test.system: B.subtilis neutral protease mutant 189 (Gly 189 → Ala) (Bacillus subtilis, UniProt P68736, G406A)
# Construct: made in house; host or cells: B. subtilis SMS 108 carrying pSM 375 (printed pSM 75; B. subtilis SMS 261)
# assay.remarks: Kinetic parameters on synthetic peptide substrates (HPLC of hydrolysis products)
# Assay type: biochemical
# test.parameters: 189 mutant; 37° C., 25 mM Tris-HCl, pH 7.0, 2.5 mM calcium acetate
# Procedure: The kinetic parameters Km and Kcat of wild-type neutral protease and of the three mutants were determined on Z-Phe-Leu-Ala, Z-Ala-Leu-Ala, Z-Gly-Leu-Ala and Z-Val-Leu-Ala synthetic peptide substrates (Bachem, Bubendorf, CH). […] The reaction products were measured as their absorbance at 220 nm and quantised by the integration of the elution peaks with the use of the System Gold program (Beckman). […]
Residues, ends and D or L forms follow the SMILES beside them. *: point of attachment. Cbz = O=C(OCc1ccccc1)*
Below is a list of entries, each paired with its recorded Kcat value.

Example entries begin here.
CC(C)C[C@H](NC(=O)CNC(=O)OCc1ccccc1)C(=O)N[C@@H](C)C(=O)O [Z--Gly--Leu--Ala, Z-Gly-Leu-Ala] (Cbz-Gly-Leu-Ala-OH)	1847
CC(C)C[C@H](NC(=O)[C@H](Cc1ccccc1)NC(=O)OCc1ccccc1)C(=O)N[C@@H](C)C(=O)O [Z--Phe--Leu--Ala, Z-Phe-Leu-Ala] (Cbz-Phe-Leu-Ala-OH)	2139
CC(C)C[C@H](NC(=O)[C@H](C)NC(=O)OCc1ccccc1)C(=O)N[C@@H](C)C(=O)O [Z--Ala--Leu--Ala, Z-Ala-Leu-Ala] (Cbz-Ala-Leu-Ala-OH)	2694

Now for another entry.
Kcat measured on CC(C)C[C@H](NC(=O)[C@@H](NC(=O)OCc1ccccc1)C(C)C)C(=O)N[C@@H](C)C(=O)O [Z--Val--Leu--Ala, Z-Val-Leu-Ala] (Cbz-Val-Leu-Ala-OH) = 13.12
